# target.under.test: cMET receptor tyrosine kinase (GST-cMET (969-1390)) (Homo sapiens, UniProt P08581)
# Sequence (P08581 969-1390): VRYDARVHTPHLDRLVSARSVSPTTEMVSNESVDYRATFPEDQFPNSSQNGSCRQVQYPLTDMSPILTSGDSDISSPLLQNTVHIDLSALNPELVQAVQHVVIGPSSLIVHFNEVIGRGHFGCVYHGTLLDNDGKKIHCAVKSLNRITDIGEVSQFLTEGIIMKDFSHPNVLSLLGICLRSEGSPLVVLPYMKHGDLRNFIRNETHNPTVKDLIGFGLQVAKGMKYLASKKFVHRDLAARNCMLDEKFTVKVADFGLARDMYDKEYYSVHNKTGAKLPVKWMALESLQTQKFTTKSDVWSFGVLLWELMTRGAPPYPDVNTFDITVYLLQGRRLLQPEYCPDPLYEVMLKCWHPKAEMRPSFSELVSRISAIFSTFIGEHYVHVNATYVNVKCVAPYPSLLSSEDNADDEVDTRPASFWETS
# experiment: EPK cMET profiling assay (LanthaScreen TR-FRET antibody based kinase phosphorylation assay)
# condition.description: purified recombinant GST-cMET (969-1390), 2 μM ATP, 50 nM Fluorescein-PolyEAY, 60 minutes at room temperature; read-out: c-Met IC50
measure.name: pIC50
Lab note — pIC50 values are minus log10 of concentrations in M.

## Input Recorded pIC50 for `FC(F)(c1ccc2ncccc2c1)c1cnc2ccc(-c3cnn(C4CCNCC4)c3)nn12` , please?
## Output 7.21

## Input I'd like to know its pIC50. The compound in question is `Fc1cc2ncccc2cc1Cc1cnc2ccc(-c3cnn(CCN4CCOCC4)c3)nn12`
## Output 7.18

## Input What value of pIC50 has been reported for the following compound? CC(c1ccc2ncccc2c1Cl)c1cnc2ccc(-c3cnn(CCO)c3)nn12 (racemic)
## Output 8.25

## Input Which value of pIC50 has been reported for CC(c1ccc2ncccc2c1Cl)c1cnc2ccc(-c3cnn(C4CCNCC4)c3)nn12 (racemic) in the records?
## Output 7.48

## Input Requested field: pIC50. Item: `CN(C)c1cccc(-c2ccc3ncc(Cc4ccc5ncccc5c4)n3n2)c1`
## Output 7.19

## Input Look up pIC50 for this compound: CCC(C)Nc1ccc2ncc(Cc3ccc4ncccc4c3)n2n1 (centres unmarked)
## Output 8.05

## Input Dear colleague, I am looking for the recorded pIC50 of the following compound: `Cn1ncc2cc(Cc3cnc4ccc(-c5cnn(C6CCNCC6)c5)nn34)c(F)cc21`
## Output 7.06

## Input Look up pIC50 for this compound: `COCCOCCn1cc(-c2ccc3ncc(Cc4cc5cccnc5cc4F)n3n2)cn1`
## Output 6.92

## Input Which pIC50 value belongs to `Cn1cc(-c2ccc3ncc(Cc4ccc5ncc(C=O)n5c4)n3n2)cn1` ?
## Output 6.89

## Input Find the recorded pIC50 belonging to `Cn1ccc2cc(-c3ccc4ncc(Cc5ccc6ncccc6c5)n4n3)ccc21` and report it.
## Output 7.52

## Input What measured pIC50 goes with `OCCn1cc(-c2ccc3ncc(Cc4ccc(O)cc4)n3n2)cn1` ?
## Output 6.48

## Input Fill in: pIC50 of `Cc1ccc(-c2ccc3ncc(Cc4ccc5ncccc5c4)n3n2)cc1` is ___
## Output 7.02

## Input Suppose we examine the compound CC(c1ccc2ncccc2c1Cl)c1cnc2ccc(-c3cnn(C)c3)nn12 (racemic) ; what pIC50 value has been reported?
## Output 7.60

## Input # pIC50 lookup, item COc1ccc(C(O)c2cnc3ccc(-c4cnn(C)c4)nn23)cc1 (racemic)
## Output 5.40

## Input Which pIC50 is reported for this compound? `c1cnc2ccc(Cc3cnc4ccc(-c5cc6ccccc6o5)nn34)cc2c1`
## Output 6.64

## Input Report pIC50 for `O[C@@H]1CCN(c2ccc3ncc(Cc4cc5cccnc5cc4F)n3n2)C1` please.
## Output 7.38

## Input Field request: pIC50 | item: `CC(C)(C)OC(=O)N1CCC(n2cc(-c3ccc4ncc(Cc5c(F)cc6ncccc6c5F)n4n3)cn2)CC1`
## Output 7.06

## Input Using the record for `Cn1cc(-c2ccc3ncc([C@H](O)c4ccc5ncccc5c4)n3n2)cn1` , report its pIC50.
## Output 7.19

## Input Form field: reported pIC50 of `C[C@@H](c1ccc2ncccc2c1)c1cnc2ccc(-c3cnn(C)c3)nn12`
## Output 7.85

## Input Tell me the measured pIC50 of CC1CCCCN1c1ccc2ncc(Cc3ccc4ncccc4c3)n2n1 (centres unmarked) , please.
## Output 6.47

## Input Which pIC50 is listed for `C[C@@H](c1ccc2nccn2c1)c1cnc2ccc(-c3cnn(C)c3)nn12` ?
## Output 7.72

## Input Form field: reported pIC50 of `Clc1cc(-c2cc(-c3ccc4ncc(Cc5ccc6ncccc6c5)n4n3)ccn2)ccn1`
## Output 6.02

## Input # lookup: pIC50 of `FC(F)(F)c1ccc(-c2ccc3ncc(Cc4ccc5ncccc5c4)n3n2)cc1`
## Output 6.43

## Input Returns the measured pIC50 for the input compound. Input: `Cn1cc(-c2ccc3ncc(Cc4ccc5ncccc5c4F)n3n2)cn1`
## Output 7.92

## Input Consider the compound CC(c1ccc2ncccc2c1)c1cnc2ccc(-c3cnn(C)c3)nn12 (racemic) and give its measured pIC50.
## Output 8.15

## Input # lookup: pIC50 of CC(c1cc2cnn(C)c2cc1F)c1cnc2ccc(-c3cnn(CCO)c3)nn12 (racemic)
## Output 7.82

## Input Need pIC50 of `c1cnc2ccc(Cc3cnc4ccc(-c5cnn(CCN6CCC6)c5)nn34)cc2c1` , thanks.
## Output 6.66

## Input Recorded pIC50 for `CN(C)c1ccc2ncc(Cc3ccc4ncccc4c3)n2n1` , please?
## Output 7.13

## Input Which pIC50 is reported for this compound? `N#Cc1cccc(-c2ccc3ncc(Cc4ccc5ncccc5c4)n3n2)c1`
## Output 7.70

## Input // query pIC50 value for entry `C[C@@H](c1ccc2c(cnn2C)c1)c1cnc2ccc(-c3cnn(C)c3)nn12`
## Output 7.44

## Input Name the recorded pIC50 for `Cn1cc(-c2ccc3ncc(Cc4ccc5ncc(-c6cnn(C)c6)n5c4)n3n2)cn1` .
## Output 6.49

## Input Requested field: pIC50. Item: `c1cnc2ccc(Cc3cnc4ccc(-c5cn[nH]c5)nn34)cc2c1`
## Output 7.27

## Input Query: pIC50; subject: `Cn1cc(-c2ccc3ncc(C4(c5ccc6ncccc6c5)CC4)n3n2)cn1`
## Output 6.96

## Input For the compound `COc1ccc(-c2ccc3ncc(Cc4ccc5ncccc5c4)n3n2)cc1` , what pIC50 is on record?
## Output 7.10

## Input Quick one: pIC50 for `CCn1cc(-c2ccc3ncc(Cc4ccc5ncccc5c4)n3n2)cn1` ?
## Output 7.07
